# PROTOCOL DESCRIPTION: Measurement of paracellular transport (Ppara) in MDCK-MDR1 cells with and without P-gp inhibitors
# Type: in vitro ADME, canine
# CONDITION DESCRIPTION: dog, MDCK-MDR1, with elacridar 2 µM; + 2 µM elacridar, pH 9, three replicates (n = 3) (Table S13)
OBSERVABLE: Papp (×10⁻⁶ cm/s)
Number in ×10⁻⁶ cm/s, nothing else.

Recorded Papp for NS(=O)(=O)c1cc2c(cc1Cl)N=CNS2(=O)=O [Chlorothiazide] , please?
1.7

###

# Tested on: P-gp (MDR1)
# PROTOCOL DESCRIPTION: in vitro
# CONDITION DESCRIPTION: dog, MDCK-MDR1, pH 9
OBSERVABLE: Papp B→A (nm/s)
Number in nm/s, nothing else.

Here is how some molecules turned out for Papp B→A.
MOLECULE: CCCC(=O)Nc1ccc(OCC(O)CNC(C)C)c(C(C)=O)c1 (stereo not shown)
Papp B→A [nm/s]: 386

MOLECULE: COc1cc([C@@H]2c3cc4c(cc3[C@@H](O[C@@H]3O[C@@H]5CO[C@@H](C)O[C@H]5[C@H](O)[C@H]3O)[C@H]3COC(=O)[C@H]23)OCO4)cc(OC)c1O [Etoposide]
Papp B→A [nm/s]: 4.3

MOLECULE: C[C@H]1O[C@@H](O[C@H]2[C@@H](O)C[C@H](O[C@H]3[C@@H](O)C[C@H](O[C@H]4CC[C@@]5(C)[C@H](CC[C@@H]6[C@@H]5C[C@@H](O)[C@]5(C)[C@@H](C7=CC(=O)OC7)CC[C@]65O)C4)O[C@@H]3C)O[C@@H]2C)C[C@H](O)[C@@H]1O
Papp B→A [nm/s]: 76.3

Lab note: next molecule to report on.
Recorded Papp B→A for "COc1cc2c(c(OC)c1OC)-c1ccc(OC)c(=O)cc1[C@@H](NC(C)=O)CC2" , please?
58.9

###

# Test system: P-gp (MDR1)
# PROTOCOL DESCRIPTION: in vitro
# CONDITION DESCRIPTION: dog, MDCK-MDR1, pH 5
OBSERVABLE: Papp (×10⁻⁶ cm/s)
Number in ×10⁻⁶ cm/s, nothing else.

MOLECULE: COc1cccc2c1C(=O)c1c(O)c3c(c(O)c1C2=O)C[C@@](O)(C(=O)CO)C[C@@H]3O[C@H]1C[C@H](N)[C@H](O)[C@H](C)O1
Papp (×10⁻⁶ cm/s): 0.77

MOLECULE: C[C@H]1O[C@@H](O[C@H]2[C@@H](O)C[C@H](O[C@H]3[C@@H](O)C[C@H](O[C@H]4CC[C@@]5(C)[C@H](CC[C@@H]6[C@@H]5C[C@@H](O)[C@]5(C)[C@@H](C7=CC(=O)OC7)CC[C@]65O)C4)O[C@@H]3C)O[C@@H]2C)C[C@H](O)[C@@H]1O
Papp (×10⁻⁶ cm/s): 0.53

MOLECULE: CCCC(=O)Nc1ccc(OCC(O)CNC(C)C)c(C(C)=O)c1 (stereo not shown)
Papp (×10⁻⁶ cm/s): 0.31

Lab note: next molecule to report on.
Param readout = Papp; param system = P-gp (MDR1); param query = "COc1cc2c(c(OC)c1OC)-c1ccc(OC)c(=O)cc1[C@@H](NC(C)=O)CC2" ; response: value
0.52

###

# Tested on: P-gp (MDR1)
# PROTOCOL DESCRIPTION: Measurement of paracellular transport (Ppara) in MDCK-MDR1 cells with and without P-gp inhibitors
# Assay type: in vitro ADME, canine
# CONDITION DESCRIPTION: dog, MDCK-MDR1, with elacridar 2 µM; A → B + elacridar (2 μM), pH 7.4, one replicate
OBSERVABLE: Papp (×10⁻⁶ cm/s)
Number in ×10⁻⁶ cm/s, nothing else.

Recorded Papp for NS(=O)(=O)c1cc2c(cc1Cl)N=CNS2(=O)=O [Chlorothiazide] , please?
0.9

###

# PROTOCOL DESCRIPTION: Measurement of paracellular transport (Ppara) in MDCK-MDR1 cells with and without P-gp inhibitors
# Format: in vitro ADME, canine
# CONDITION DESCRIPTION: dog, MDCK-MDR1, pH 7.4, A⟶B, no inhibitor, pH 7.4
OBSERVABLE: recovery (%)
Number in %, nothing else.

Recorded recovery for NS(=O)(=O)c1cc2c(cc1Cl)N=CNS2(=O)=O [Chlorothiazide] , please?
125

###

# Test system: P-gp (MDR1)
# PROTOCOL DESCRIPTION: in vitro
# CONDITION DESCRIPTION: dog, MDCK-MDR1, pH 6
OBSERVABLE: efflux ratio
A bare number is all that is needed in reply.

Recorded efflux ratio for COc1cc([C@@H]2c3cc4c(cc3[C@@H](O[C@@H]3O[C@@H]5CO[C@@H](C)O[C@H]5[C@H](O)[C@H]3O)[C@H]3COC(=O)[C@H]23)OCO4)cc(OC)c1O [Etoposide] , please?
26.8

###

# Tested on: P-gp (MDR1)
# PROTOCOL DESCRIPTION: Measurement of paracellular transport (Ppara) in MDCK-MDR1 cells with and without P-gp inhibitors
# Assay type: in vitro ADME, canine
# CONDITION DESCRIPTION: dog, MDCK-MDR1, with verapamil 100 µM; A → B + verapamil (100 μM), pH 7.4, one replicate
OBSERVABLE: Papp (×10⁻⁶ cm/s)
Number in ×10⁻⁶ cm/s, nothing else.

Recorded Papp for NS(=O)(=O)c1cc2c(cc1Cl)N=CNS2(=O)=O [Chlorothiazide] , please?
1.4

###

# reported Factor difference; entries follow
# System: MDCK-MDR1 cells
# PROTOCOL DESCRIPTION: Comparison of Papp,B-A with and without inhibitor in MDCK-MDR1 cells (own and literature data)
# CONDITION DESCRIPTION: calculated from literature Papp,B⟶A and Papp with inhibitor; pH 7.4 iso-method
A bare number is all that is needed in reply.

Here is how some compounds turned out for Factor difference.
COMPOUND: Nc1ccn([C@@H]2CS[C@H](CO)O2)c(=O)n1
Factor difference: 2
--
COMPOUND: CCOC(=O)CN[C@@H](C(=O)N1CC[C@H]1C(=O)NCc1ccc(/C(N)=N\O)cc1)C1CCCCC1
Factor difference: 6
--
COMPOUND: CN(C)C(=O)Oc1cccc([N+](C)(C)C)c1
Factor difference: 2
--
COMPOUND: CN1CCC[C@@H]1Cc1c[nH]c2ccc(CCS(=O)(=O)c3ccccc3)cc12
Factor difference: 2

Recorded Factor difference for "CNC(=C[N+](=O)[O-])NCCSCc1ccc(CN(C)C)o1" , please?
3

Recorded Factor difference for "CC(C)c1nc(CN(C)C(=O)N[C@H](C(=O)N[C@@H](Cc2ccccc2)C[C@H](O)[C@H](Cc2ccccc2)NC(=O)OCc2cncs2)C(C)C)cs1" , please?
6

Recorded Factor difference for CC(C)NCC(O)c1ccc(NS(C)(=O)=O)cc1 (centres unmarked) , please?
5

Recorded Factor difference for "CN1CCC[C@@H]1CCO[C@](C)(c1ccccc1)c1ccc(Cl)cc1" , please?
3

###

# reported Papp; entries follow
# Test system: P-gp (MDR1)
# PROTOCOL DESCRIPTION: in vitro
# CONDITION DESCRIPTION: dog, MDCK-MDR1, pH 8
Number in ×10⁻⁶ cm/s, nothing else.

Here is how some compounds turned out for Papp.
COMPOUND: COc1cc2c(c(OC)c1OC)-c1ccc(OC)c(=O)cc1[C@@H](NC(C)=O)CC2
Papp, ×10⁻⁶ cm/s: 0.2
//
COMPOUND: COc1cc([C@@H]2c3cc4c(cc3[C@@H](O[C@@H]3O[C@@H]5CO[C@@H](C)O[C@H]5[C@H](O)[C@H]3O)[C@H]3COC(=O)[C@H]23)OCO4)cc(OC)c1O [Etoposide]
Papp, ×10⁻⁶ cm/s: 0.14
//
COMPOUND: C[C@H]1O[C@@H](O[C@H]2[C@@H](O)C[C@H](O[C@H]3[C@@H](O)C[C@H](O[C@H]4CC[C@@]5(C)[C@H](CC[C@@H]6[C@@H]5C[C@@H](O)[C@]5(C)[C@@H](C7=CC(=O)OC7)CC[C@]65O)C4)O[C@@H]3C)O[C@@H]2C)C[C@H](O)[C@@H]1O
Papp, ×10⁻⁶ cm/s: 0.72
//
COMPOUND: CCCC(=O)Nc1ccc(OCC(O)CNC(C)C)c(C(C)=O)c1 (centres unmarked)
Papp, ×10⁻⁶ cm/s: 0.61

Recorded Papp for "COc1cccc2c1C(=O)c1c(O)c3c(c(O)c1C2=O)C[C@@](O)(C(=O)CO)C[C@@H]3O[C@H]1C[C@H](N)[C@H](O)[C@H](C)O1" , please?
0.17

###

# Test system: P-gp (MDR1)
# PROTOCOL DESCRIPTION: Comparison of Papp,B-A with and without inhibitor in MDCK-MDR1 cells (own and literature data)
# CONDITION DESCRIPTION: dog, MDCK-MDR1, Papp, B⟶A, This study; without inhibitor; varying pH with the iso-method
OBSERVABLE: Papp (×10⁻⁶ cm/s)
Number in ×10⁻⁶ cm/s, nothing else.

Recorded Papp for CCCC(=O)Nc1ccc(OCC(O)CNC(C)C)c(C(C)=O)c1 (stereo not shown) , please?
16.7
